The origin of these recorded values is paper PMC10724200.

Molecular target: T1, recombinant receptor human IL-10Ra protein (human, UniProt Q13651 22-235)
T1 construct: Interleukin-10 receptor subunit alpha, human, recombinant; also called IL-10 receptor
T1 sequence (looked up): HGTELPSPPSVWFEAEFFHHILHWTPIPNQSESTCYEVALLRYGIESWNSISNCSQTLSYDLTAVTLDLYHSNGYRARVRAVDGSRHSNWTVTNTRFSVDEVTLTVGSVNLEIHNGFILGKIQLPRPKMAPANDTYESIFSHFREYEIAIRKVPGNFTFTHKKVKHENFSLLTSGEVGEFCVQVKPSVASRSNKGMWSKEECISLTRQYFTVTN
Assay: BLI; ForteBio Octet RED96e, streptavidin biosensors loaded with 10 μg/mL recombinant human IL-10Ra (150 s); peptides at 3.12-100.0 μM, association 120 s; dissociation 120 s in PBS with 0.05% Tween20
Conditions: both partners purified
metric: koff (s⁻¹)
Kindly provide the numeric value in s⁻¹ only, without the unit symbol.

binder	unit info	koff
NMLRDLRDAFSRVKTFFQMK (truncation of NM25 (five C-terminal residues removed); stretch of human IL-10; source: synthetic peptide (GeneMark, GMbiolab Co., solid-phase)) [NK20 peptide]	s⁻¹	0.218
NMLRNLRNAFSRVKTFFQMK (NK20 with two Asp replaced by Asn; stretch of human IL-10; source: synthetic peptide (GeneMark, GMbiolab Co., solid-phase)) [NK20a peptide]	s⁻¹	0.0909

Request: Entry NMLRDLRDAFSRVKTFFQMKDQLDN (human IL-10; also called original peptide; source: synthetic peptide (GeneMark, GMbiolab Co., solid-phase)) [NM25 peptide] : reported koff = ?
Result: 0.0341
